Kindly supply the reported pIC50 values for the records listed here.
- Tested on: MiaPaCa-2 cells
- assay-explanation: MTS cytotoxicity assay, MiaPaCa-2
- Format: cell-based
- measurement-setup: 72 h, 37 °C, triplicate, at least three experiments, errors = transformed greater extreme of standard error, SEM, read-out: MiaPaCa-2 cell growth inhibition IC50
Scale explanation: pIC50 corresponds to minus log10 of a concentration expressed in moles per litre.

Given the molecule COC(=O)[C@H](Cc1cn(Cc2ccccc2F)nn1)NC(=O)OCC1c2ccccc2-c2ccccc21 , what is its reported pIC50?
4.71

Given the entry COC(=O)C(Cc1cn(Cc2ccc(C#N)cc2)nn1)NC(=O)OCC1c2ccccc2-c2ccccc21 (centres unmarked) , report its measured pIC50.
5.18

GET /values?readout=pIC50&item= COC(=O)C(Cc1cn(C23CC4CC(CC(C4)C2)C3)nn1)NC(=O)OCC1c2ccccc2-c2ccccc21 (centres unmarked)
4.82

Which pIC50 reading was recorded for the molecule COC(=O)C(Cc1cn(Cc2ccc(Cl)cc2)nn1)NC(=O)OCC1c2ccccc2-c2ccccc21 (centres unmarked) ?
5.73

Entry COC(=O)[C@H](Cc1cn(Cc2ccccc2C)nn1)NC(=O)OCC1c2ccccc2-c2ccccc21 has what pIC50?
5.67

* * *

- System: MiaPaCa-2 cells
- assay-explanation: MTS cytotoxicity assay, MiaPaCa-2
- Format: cell-based
- measurement-setup: Homo sapiens, MIA PaCa-2, 72 h, 37 °C, triplicate, at least three experiments, errors = transformed greater extreme of standard error, read-out: MiaPaCa-2 cell growth inhibition IC50
I'd appreciate it if you could supply IC50 values for the items below.

Report IC50 for C1=C(c2cn(Cc3ccccc3)nn2)CCCC1 please.
> 100 µM

Could you share which IC50 value was measured for Clc1ccc(-c2cn(Cc3ccccc3)nn2)c(Cl)c1 ?
> 100 µM

* * *

- system-tested: Mcl-1 (UniProt P97287+Q07820)
- Construct: amino acid residues 152-189 of mouse Mcl-1 fused with amino acid residues 209-327 of; 8 x His (N); TEV site (N); made in house; host or cells: E. coli BL21(DE3)pLysS
- Sequence (P97287 152-189 limits assumed): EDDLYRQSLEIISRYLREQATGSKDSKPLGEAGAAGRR
- Sequence (Q07820 209-327 limits assumed): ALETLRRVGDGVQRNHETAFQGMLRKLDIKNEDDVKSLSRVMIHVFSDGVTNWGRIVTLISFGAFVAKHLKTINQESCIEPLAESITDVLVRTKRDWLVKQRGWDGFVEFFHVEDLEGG
- assay-explanation: Competitive fluorescence anisotropy (FA) assay, FITC-NoxaB displacement from Mcl-1
- Format: binding
- measurement-setup: Table S2; binding inhibition of FITC-NoxaB to Mcl-1; small molecules not tested against cell lines; at least three experiments; errors = transformed greater extreme of standard error; SEM; read-out: FA IC50
I'd be grateful if you could share measured IC50 for these entries.
Enter your answer as a number in µM; do not include the unit.

Entry Fc1ccccc1Cn1cc(-c2ccccc2Cl)nn1 [Compound S14] has what IC50?
1.37

Which IC50 value belongs to CCc1ccc(-c2cn(CC(=O)O)nn2)cc1 [Compound S10] ?
0.497

Which value of IC50 has been reported for CCOc1ccc(-c2cn(CC(=O)O)nn2)cc1 [Compound S13] in the records?
1.32

Could you share which IC50 value was measured for CCC(C)c1cn(Cc2ccccc2)nn1 (stereo not shown) [Compound S15] ?
3.31

Item O=C(O)Cn1cc(-c2ccc([N+](=O)[O-])cc2)nn1 [Compound S11] has what recorded IC50?
0.561

What measured IC50 goes with COC(=O)[C@H](Cc1cn(CC(=O)O)nn1)NC(=O)OCC1c2ccccc2-c2ccccc21 [Compound S16] ?
5.28

For the compound shown here, Cc1ccc(-c2cn(CC(=O)O)nn2)c(C)c1 [Compound S12] , give the reported IC50.
0.766

* * *

- system-tested: Mcl-1 (UniProt P97287+Q07820)
- Construct: amino acid residues 152-189 of mouse Mcl-1 fused with amino acid residues 209-327 of; 8 x His (N); TEV site (N); made in house; host or cells: E. coli BL21(DE3)pLysS
- assay-explanation: Competitive fluorescence anisotropy (FA) assay, FITC-NoxaB displacement from Mcl-1
- Assay type: binding
- measurement-setup: SEM; read-out: FA IC50
Peptide text beside a SMILES is read from it. * marks the point of attachment. X3 = O=C(Cn1cc(-c2ccc([N+](=O)[O-])cc2)nn1)*; X2 = COc1ccc(OC)c(-c2cn(CC(=O)*)nn2)c1
measured-metric: pIC50
pIC50 here: minus log base 10 of the concentration, concentration in moles per litre.

Reported pIC50 for CC[C@H](C)[C@H](NC(=O)[C@H](CCCNC(=N)N)NC(=O)[C@H](CCCNC(=N)N)NC(=O)[C@H](CC(C)C)NC(=O)[C@H](CCC(N)=O)NC(=O)[C@H](C)NC(=O)[C@H](C)NC(C)=O)C(=O)NCC(=O)N[C@@H](CC(=O)O)C(=O)N[C@@H](Cc1cn(Cc2ccccc2F)nn1)C(N)=O : what is it?
6.40

Look up pIC50 for this molecule: COc1ccc(OC)c(-c2cn(CC(=O)N[C@@H](CCCCN)C(=O)N[C@H](C(=O)N[C@@H](CC(N)=O)C(=O)N[C@@H](CC(C)C)C(=O)N[C@@H](CCCNC(=N)N)C(=O)N[C@@H](CCC(N)=O)C(=O)N[C@@H](CCCCN)C(=O)N[C@@H](CC(C)C)C(=O)N[C@@H](CC(C)C)C(=O)N[C@@H](CC(N)=O)C(N)=O)C(C)C)nn2)c1 [Compound 9] (X2-KVNLRQKLLN-NH2)
7.00

Please look up its pIC50: CC(C)C[C@H](NC(=O)[C@H](CC(C)C)NC(=O)[C@H](CCCCN)NC(=O)[C@H](CCC(N)=O)NC(=O)[C@H](CCCNC(=N)N)NC(=O)[C@H](CC(C)C)NC(=O)[C@H](CC(N)=O)NC(=O)[C@@H](NC(=O)[C@H](CCCCN)NC(=O)Cn1cc(-c2ccc([N+](=O)[O-])cc2)nn1)C(C)C)C(=O)N[C@@H](CC(N)=O)C(N)=O [Compound 11] (X3-KVNLRQKLLN-NH2)
5.46

* * *

- system-tested: Mcl-1 (UniProt P97287+Q07820)
- Construct: amino acid residues 152-189 of mouse Mcl-1 fused with amino acid residues 209-327 of; 8 x His (N); TEV site (N); made in house; host or cells: E. coli BL21(DE3)pLysS
- assay-explanation: Competitive fluorescence anisotropy (FA) assay, FITC-NoxaB displacement from Mcl-1
- Type: binding
- measurement-setup: 5 nM FITC-NoxaB, 10 nM Mcl-1; read-out: IC50 (competitive FA assay, Mcl-1)
measured-metric: pIC50
// returns pIC50 (minus log10 of molar concentration), number only

Can you look up the measured pIC50 of extended NoxaB peptide: the two NoxaB peptide fragments clicked together by CuAAC (AAQLRRIGDXKVNLRQKLLN; N-terminal acetyl) for me?
5.14
